Below, each entry is listed alongside its reported solubility kinetic.
conditions: buffer; pH 7.4; 200.0 µM
Measure Name: solubility kinetic (µg/mL)

compound=CC(=O)N1CCN(S(=O)(=O)c2cccc(C(=O)OCC(=O)N(Cc3ccccc3)C(C)(C)C)c2)CC1 unit=µg/mL op== numeric_result=60.5
compound="O=C(O)C1CCCCN1C(=O)c1cc2c(s1)CCCCC2 (stereo unspecified)" unit=µg/mL op=> numeric_result=46.1
compound=OCCCNc1ncnc2c1[nH]c1ccccc12 unit=µg/mL op== numeric_result=35.6
compound="Cc1cccc(NC(=O)C(=O)NCC2CCCO2)c1 (stereo unspecified)" unit=µg/mL op=> numeric_result=39.3
compound="CP(=O)(Nc1ccccc1)C(Cl)(Cl)Cl (stereo unspecified)" unit=µg/mL op=> numeric_result=40.9
compound=CC(C)(C)C(=O)O/N=C1\CCS(=O)(=O)c2sccc21 unit=µg/mL op== numeric_result=36.5

====

conditions: buffer; pH 7.4; 200.0 µM
Cut-off 6 µg/mL on solubility kinetic, inclusive. At or above means t; below means f.

compound=CC1(C)Cc2nc3sc(C(=O)NCCCO)c(N)c3cc2CO1 discrete_label=t
compound=Cc1cc(C(=O)NCc2cc(C(=O)O)co2)co1 discrete_label=t
compound=CCOC(=O)Cn1c(=O)cc(C)c2ccccc21 discrete_label=t
compound=CCOc1ncccc1C(=O)Nc1cccc(S(=O)(=O)N2CCOCC2)c1 discrete_label=t
compound=CCc1cccc(CC)c1NC(=O)C1CCN(C(=O)c2ccco2)CC1 discrete_label=t
compound="CSc1ccc(S(=O)(=O)N2c3ccccc3CC2C)cc1 (stereo not given)" discrete_label=f
compound=CN(C)c1ccc(CNS(=O)(=O)c2csc(C(N)=O)c2)cc1 discrete_label=t
compound=CCN(CC)C(=O)N1CCN(C(=O)N2CCOCC2)CC1 discrete_label=t
compound=Cc1ccc(C(=O)COC(=O)c2cccc([N+](=O)[O-])c2)s1 discrete_label=t
compound=COc1ccc(NC(=O)COC(=O)Cc2ccsc2)c(OC)c1 discrete_label=t
compound=CCOC(=O)c1cnc2c(C)cccc2c1Nc1cccc(C(=O)O)c1.Cl discrete_label=t
compound=Nc1ccccc1Nc1nc2ccccc2[nH]1 discrete_label=t
compound="OCCC1CN(C2CCSCC2)CCN1C1CCCC1 (stereo not given)" discrete_label=t
compound="CC(=O)c1ccc(-c2ccc(C(=O)NCC3CCCO3)o2)cc1 (stereo not given)" discrete_label=t
compound=O=C(NCc1cccc(Cl)c1)NC(=O)c1csc([N+](=O)[O-])c1 discrete_label=f
compound=O=C(CN1C(=O)S/C(=C\c2cc(Cl)c(O)c(Cl)c2)C1=O)Nc1ccccc1 discrete_label=f
compound=COC(=O)C1CCN(S(=O)(=O)Cc2ccccc2Cl)CC1 discrete_label=t
compound=C=C(C)CN(CC)c1ccc(N2C(=O)CCCC2=O)cc1[N+](=O)[O-] discrete_label=t
compound=Cc1ccc(OCCn2cc(C(=O)O)c3ccccc32)cc1 discrete_label=t
compound=O=Cc1cn(CCOc2ccccc2)c2ccccc12 discrete_label=t
compound=COc1cc(SC)ccc1C(=O)Nc1ccc(C)cc1 discrete_label=f
compound=Cc1cc(S(=O)(=O)N2CCCCC2)c(C)s1 discrete_label=t
compound=CCOC(=O)CNC(=S)SC discrete_label=t
compound=Cc1cccn2c(=O)c(/C=C(\C#N)C(N)=O)c(N3CCCCCC3)nc12 discrete_label=f
compound=Cc1ccc(OCCNS(=O)(=O)c2ccc(Cl)cc2)cc1 discrete_label=f
